Source: patent US20240209076A1

# Target or system: recombinant human IL-6 (human, UniProt P05231 30-212)
# Sequence (P05231 30-212 limits assumed): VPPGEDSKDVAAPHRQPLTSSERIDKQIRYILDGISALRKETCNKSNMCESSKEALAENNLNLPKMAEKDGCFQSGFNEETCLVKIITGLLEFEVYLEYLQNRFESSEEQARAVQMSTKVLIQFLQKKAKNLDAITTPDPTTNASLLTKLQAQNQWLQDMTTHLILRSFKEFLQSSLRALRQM
# Assay text: SPR, IL-6 on CM5 chip, Fab lysate, 25 C
# Method: Three ranges of antigen density (100-150 RU, 300-400 RU, 400-600 RU) were obtained by using variable flow times for each chip channel, later blocked with ethanolamine. Supernatants of the 96-well filtered culture lysates were injected at 50 μL/min for 120 seconds. Fitting of dissociation curves (300 seconds) to single exponential decay curve was used for the determination of dissociation rates (koff). […]
Property measured: log10 of koff (log10 of the value in s⁻¹)
Lab note - koff converted to log10 from values in s⁻¹.

stdin: Please give the documented log10 of koff of anti-IL-6 Fab, light chain Y48F (Fab, V domains shown, see m39) VH: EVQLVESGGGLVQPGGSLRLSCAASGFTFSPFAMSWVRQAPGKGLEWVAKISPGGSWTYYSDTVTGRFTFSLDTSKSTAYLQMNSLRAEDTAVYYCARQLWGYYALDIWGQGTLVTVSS VL: DIQLTQSPSSLSASVGDRVTITCSASISVSYMYWYQQKPGKAPKLLIFDMSNLASGVPSRFSGSGSGTDFTLTISSLQPEDFATYYCMQWSGYPYTFGQGTKVEIK
stdout: -2.27

stdin: Provide measured log10 of koff value, entry: anti-IL-6 Fab, light chain M32V (Fab, V domains shown, see m39) VH: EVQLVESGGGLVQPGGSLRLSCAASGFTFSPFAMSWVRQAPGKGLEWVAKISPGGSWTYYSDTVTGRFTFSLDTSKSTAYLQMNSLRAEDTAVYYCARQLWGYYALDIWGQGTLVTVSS VL: DIQLTQSPSSLSASVGDRVTITCSASISVSYVYWYQQKPGKAPKLLIYDMSNLASGVPSRFSGSGSGTDFTLTISSLQPEDFATYYCMQWSGYPYTFGQGTKVEIK
stdout: -2.34

stdin: Report log10 of koff for anti-IL-6 Fab, heavy chain T58V (Fab, V domains shown, see m39) VH: EVQLVESGGGLVQPGGSLRLSCAASGFTFSPFAMSWVRQAPGKGLEWVAKISPGGSWVYYSDTVTGRFTFSLDTSKSTAYLQMNSLRAEDTAVYYCARQLWGYYALDIWGQGTLVTVSS VL: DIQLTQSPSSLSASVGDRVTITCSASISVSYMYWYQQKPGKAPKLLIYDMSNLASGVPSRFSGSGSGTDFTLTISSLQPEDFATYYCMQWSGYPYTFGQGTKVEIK
stdout: -1.25

stdin: Supply reported log10 of koff belonging to this binder: anti-IL-6 Fab, heavy chain S56R (Fab, V domains shown, see m39) VH: EVQLVESGGGLVQPGGSLRLSCAASGFTFSPFAMSWVRQAPGKGLEWVAKISPGGRWTYYSDTVTGRFTFSLDTSKSTAYLQMNSLRAEDTAVYYCARQLWGYYALDIWGQGTLVTVSS VL: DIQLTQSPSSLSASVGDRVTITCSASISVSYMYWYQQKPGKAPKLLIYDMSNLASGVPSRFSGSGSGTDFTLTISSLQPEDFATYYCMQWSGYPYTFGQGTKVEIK
stdout: -2.29

stdin: Identify log10 of koff associated with the binder anti-IL-6 Fab, light chain S51K (Fab, V domains shown, see m39) VH: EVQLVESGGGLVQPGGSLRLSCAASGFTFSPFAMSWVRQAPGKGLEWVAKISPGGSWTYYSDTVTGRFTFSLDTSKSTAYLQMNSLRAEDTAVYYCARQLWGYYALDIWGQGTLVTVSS VL: DIQLTQSPSSLSASVGDRVTITCSASISVSYMYWYQQKPGKAPKLLIYDMKNLASGVPSRFSGSGSGTDFTLTISSLQPEDFATYYCMQWSGYPYTFGQGTKVEIK
stdout: -2.34

stdin: Determine its reported log10 of koff: anti-IL-6 Fab, light chain S91A (Fab, V domains shown, see m39) VH: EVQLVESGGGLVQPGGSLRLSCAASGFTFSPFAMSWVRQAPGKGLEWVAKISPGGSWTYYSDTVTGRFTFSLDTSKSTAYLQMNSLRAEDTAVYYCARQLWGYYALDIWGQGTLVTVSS VL: DIQLTQSPSSLSASVGDRVTITCSASISVSYMYWYQQKPGKAPKLLIYDMSNLASGVPSRFSGSGSGTDFTLTISSLQPEDFATYYCMQWAGYPYTFGQGTKVEIK
stdout: -2.25

stdin: Provide log10 of koff value for the following binder: anti-IL-6 Fab, heavy chain F32V (Fab, V domains shown, see m39) VH: EVQLVESGGGLVQPGGSLRLSCAASGFTFSPVAMSWVRQAPGKGLEWVAKISPGGSWTYYSDTVTGRFTFSLDTSKSTAYLQMNSLRAEDTAVYYCARQLWGYYALDIWGQGTLVTVSS VL: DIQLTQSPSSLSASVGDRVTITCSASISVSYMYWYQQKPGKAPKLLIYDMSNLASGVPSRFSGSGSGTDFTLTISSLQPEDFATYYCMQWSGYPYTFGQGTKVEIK
stdout: -2.27

stdin: Determine from records and report log10 of koff for anti-IL-6 Fab, heavy chain F27R (Fab, V domains shown, see m39) VH: EVQLVESGGGLVQPGGSLRLSCAASGRTFSPFAMSWVRQAPGKGLEWVAKISPGGSWTYYSDTVTGRFTFSLDTSKSTAYLQMNSLRAEDTAVYYCARQLWGYYALDIWGQGTLVTVSS VL: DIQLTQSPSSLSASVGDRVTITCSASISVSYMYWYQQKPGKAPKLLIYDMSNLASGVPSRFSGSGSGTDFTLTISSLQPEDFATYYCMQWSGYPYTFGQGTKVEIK
stdout: -2.40

stdin: Supply recorded log10 of koff for anti-IL-6 Fab, heavy chain T65I (Fab, V domains shown, see m39) VH: EVQLVESGGGLVQPGGSLRLSCAASGFTFSPFAMSWVRQAPGKGLEWVAKISPGGSWTYYSDTVIGRFTFSLDTSKSTAYLQMNSLRAEDTAVYYCARQLWGYYALDIWGQGTLVTVSS VL: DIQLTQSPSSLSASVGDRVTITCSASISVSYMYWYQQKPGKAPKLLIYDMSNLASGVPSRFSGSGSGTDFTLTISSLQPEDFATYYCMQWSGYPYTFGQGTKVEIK here.
stdout: -2.21

stdin: Given the binder anti-IL-6 Fab, heavy chain S35H (Fab, V domains shown, see m39) VH: EVQLVESGGGLVQPGGSLRLSCAASGFTFSPFAMHWVRQAPGKGLEWVAKISPGGSWTYYSDTVTGRFTFSLDTSKSTAYLQMNSLRAEDTAVYYCARQLWGYYALDIWGQGTLVTVSS VL: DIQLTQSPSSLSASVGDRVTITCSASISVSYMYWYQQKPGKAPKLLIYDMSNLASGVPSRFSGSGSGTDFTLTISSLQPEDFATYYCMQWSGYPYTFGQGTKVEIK , write its reported log10 of koff.
stdout: -2.41
